assay target: full length recombinant Pim-1 (Homo sapiens (Human), UniProt P11309)
Sequence (P11309 whole entry): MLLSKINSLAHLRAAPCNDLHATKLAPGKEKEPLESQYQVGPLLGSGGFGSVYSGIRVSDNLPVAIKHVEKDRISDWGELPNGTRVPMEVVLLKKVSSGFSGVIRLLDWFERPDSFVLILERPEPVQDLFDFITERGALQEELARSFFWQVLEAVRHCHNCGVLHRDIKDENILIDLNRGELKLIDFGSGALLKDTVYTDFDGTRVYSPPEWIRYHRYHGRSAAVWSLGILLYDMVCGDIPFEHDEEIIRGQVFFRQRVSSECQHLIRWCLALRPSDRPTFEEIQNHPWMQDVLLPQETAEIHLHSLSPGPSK
assay remarks: Pim enzyme assay (HTRF, phosphorylation of biotinylated-BAD (S112) peptide), Pim-1
Assay type: biochemical
conditions used: Pim-1 enzyme assay; read-out: Pim_1_IC50
recorded endpoint: IC50 (nM)

INSERT INTO results (query_smiles, numeric_result) VALUES
  ('Nc1nnc(-c2ccc3[nH]cc(-c4cccc(NC5CCCCC5)n4)c3c2)s1', 110);

P = Cc1cn(-c2nc(-c3c[nH]c4ccc(-c5nnc(N)s5)cc34)cs2)cn1
Q = Nc1nnc(-c2ccc3[nH]cc(-c4cc(C(=O)Nc5ccccc5)ccc4F)c3c2)s1
Query: Of P versus Q , which is the one with smaller reported IC50? Give the chosen item's label as your response.
Result: P
